Reported pIC50 values for the following compounds.
MEASURED_TARGET: IGFR kinase (Homo sapiens, UniProt P08069)
Construct: purchased Millipore
Sequence (P08069 31-1367): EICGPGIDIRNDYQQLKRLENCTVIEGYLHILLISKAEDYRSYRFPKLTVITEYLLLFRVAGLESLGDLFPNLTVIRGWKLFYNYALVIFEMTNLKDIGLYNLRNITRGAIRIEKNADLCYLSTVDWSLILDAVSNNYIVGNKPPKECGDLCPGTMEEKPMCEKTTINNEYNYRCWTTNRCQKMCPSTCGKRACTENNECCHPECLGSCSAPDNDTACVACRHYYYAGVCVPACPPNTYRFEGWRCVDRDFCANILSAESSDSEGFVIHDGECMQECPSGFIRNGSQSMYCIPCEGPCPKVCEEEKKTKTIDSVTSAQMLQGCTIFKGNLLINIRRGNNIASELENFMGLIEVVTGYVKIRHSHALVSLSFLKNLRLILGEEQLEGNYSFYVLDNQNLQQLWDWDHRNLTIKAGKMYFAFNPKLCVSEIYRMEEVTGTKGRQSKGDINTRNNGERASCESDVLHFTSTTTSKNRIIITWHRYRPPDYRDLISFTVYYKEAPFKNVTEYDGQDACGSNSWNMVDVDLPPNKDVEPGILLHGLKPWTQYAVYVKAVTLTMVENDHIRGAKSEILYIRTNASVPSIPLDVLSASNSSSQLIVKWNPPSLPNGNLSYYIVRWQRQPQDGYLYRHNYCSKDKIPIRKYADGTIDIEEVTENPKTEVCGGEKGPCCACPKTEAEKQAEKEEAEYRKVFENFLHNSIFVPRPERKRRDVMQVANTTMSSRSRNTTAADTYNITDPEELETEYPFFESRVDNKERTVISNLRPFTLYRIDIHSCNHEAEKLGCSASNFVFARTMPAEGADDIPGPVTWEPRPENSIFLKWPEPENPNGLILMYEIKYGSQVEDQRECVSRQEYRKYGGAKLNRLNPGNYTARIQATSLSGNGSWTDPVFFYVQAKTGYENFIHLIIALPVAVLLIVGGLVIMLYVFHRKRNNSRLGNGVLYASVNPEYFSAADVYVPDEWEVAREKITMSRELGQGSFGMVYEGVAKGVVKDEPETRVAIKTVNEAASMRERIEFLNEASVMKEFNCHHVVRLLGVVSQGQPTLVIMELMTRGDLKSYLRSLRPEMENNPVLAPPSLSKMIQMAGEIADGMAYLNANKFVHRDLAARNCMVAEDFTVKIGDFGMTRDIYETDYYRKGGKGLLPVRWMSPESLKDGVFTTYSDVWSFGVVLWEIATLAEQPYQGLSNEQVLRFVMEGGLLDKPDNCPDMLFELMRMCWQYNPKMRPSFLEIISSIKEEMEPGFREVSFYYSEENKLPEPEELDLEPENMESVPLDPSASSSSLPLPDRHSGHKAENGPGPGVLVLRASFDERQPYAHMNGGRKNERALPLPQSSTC
PROCEDURE_TEXT: Enzyme assay (c), IGFR kinase, Caliper LabChip
Format: biochemical
STUDY_CONDITIONS: 30 nM IGFR kinase, 6 uM ATP, 3 uM peptide mix; read-out: IGFR IC50
pIC50: −log10 of the molar value.

CHEMICAL_SMILES: COc1cc(N2CCNCC2)ccc1Nc1ncc(Cl)c(-c2cnc3c(F)cc(F)cn23)n1
pIC50: 8.22
--
CHEMICAL_SMILES: COc1cc(N2CCN(C(C)=O)CC2)ccc1Nc1ncc(C2CC2)c(-c2cnc3c(F)cccn23)n1
pIC50: 7.06
--
CHEMICAL_SMILES: COc1cc(N2CCN(C(=O)[C@H]3CCCCN3)CC2)ccc1Nc1ncc(Cl)c(-c2cnc3ccccn23)n1
pIC50: 8.10
--
CHEMICAL_SMILES: CNCC(=O)N1CC2CN(c3ccc(Nc4ncc(Cl)c(-c5cnc6c(F)cccn56)n4)c(OC)c3)CC(C1)O2
pIC50: 7.59
--
CHEMICAL_SMILES: COc1cc(C2CCN(C(C)=O)CC2)ccc1Nc1ncc(C)c(-c2cnc3ccccn23)n1
pIC50: 7.62
--
CHEMICAL_SMILES: CCC(=O)N1CCN(c2ccc(Nc3ncc(Cl)c(-c4cnc5ccccn45)n3)c(OC)c2)CC1
pIC50: 7.74
--
CHEMICAL_SMILES: COc1cc(CN[C@H](C)CO)ccc1Nc1ncc(Cl)c(-c2cnc3ccccn23)n1
pIC50: 7.59
--
CHEMICAL_SMILES: COc1cc(C2CCOCC2)ccc1Nc1ncc(F)c(-c2cnc3ccccn23)n1
pIC50: 7.48
--
CHEMICAL_SMILES: CNC(=O)[C@H](C)Oc1ccc(Nc2ncc(Cl)c(-c3cnc4c(F)cccn34)n2)c(OC)c1
pIC50: 8.15
--
CHEMICAL_SMILES: COc1cc(C2CCN(CC(=O)N(C)C)CC2)ccc1Nc1ncc(Cl)c(-c2cnc3c(F)cccn23)n1
pIC50: 8.70
--
CHEMICAL_SMILES: COc1cc(N2CC3CN(C(=O)[C@@H](C)O)CC(C2)O3)ccc1Nc1ncc(Cl)c(-c2cnc3c(F)cccn23)n1
pIC50: 7.74
--
CHEMICAL_SMILES: COc1cc(C2CCN(C(=O)CO)CC2)ccc1Nc1ncc(C)c(-c2cnc3c(F)cccn23)n1
pIC50: 7.59
--
CHEMICAL_SMILES: COc1cc(C2CCN(C(=O)[C@@H](C)O)CC2)ccc1Nc1ncc(Cl)c(-c2cnc3ccc(F)cn23)n1
pIC50: 8.40
--
CHEMICAL_SMILES: COc1cc(N2CCN(C(C)=O)CC2)ccc1Nc1ncc(Cl)c(-c2cnc3cc(Br)ccn23)n1
pIC50: 7.82
--
CHEMICAL_SMILES: COc1cc(N2CC[C@@H](N(C)C)C2)ccc1Nc1ncc(Cl)c(-c2cnc3ccccn23)n1
pIC50: 7.16

---

MEASURED_TARGET: UniProtKB P08069
PROCEDURE_TEXT: Inhibition of insulin-like growth factor-1 receptor phosphorylation (immunofluorescence end point cell assay, R+ cells)
STUDY_CONDITIONS: R+ cells stimulated with 30 nM IGF1
pIC50: −log10 of the molar value.

COMPOUND: COc1cc(N2CC(C)NC(C)C2)ccc1Nc1ncc(Cl)c(-c2cnc3ccccn23)n1 (stereo not shown)
MEASURED_TARGET: UniProtKB P08069
pIC50: 8.40
